Where these numbers come from: ChEMBL document CHEMBL1124833

experiment: Extent of reaction with 5 equiv of reduced glutathione (GSH) between 16 and 22 hours at pH 7.4 and 37 degree C
endpoint: GSH (%)

- smiles_repr: "CC(C)(C)C(=O)Oc1ccc2oc(S(N)(=O)=O)cc2c1"
  endpoint: "GSH"
  unit_annotation: "%"
  numeric_value: 3.4

P. NS(=O)(=O)c1cc2ccc(O)cc2o1
Q. NS(=O)(=O)c1cc2ccc(O)cc2s1
Qu. When their GSH values are compared, which is larger, P or Q ? // respond with label for picked entry
Ans. P
